Some compounds, each annotated with its measured T/C.
Test system: P388 leukemia ip, CD2F1 mice, survival T/C
Test Details: NCI In Vivo Anticancer Drug Screen. Data for tumor model P388 Leukemia (intraperitoneal) in CD2F1 (CDF1) mice
Condition Info: endpoint: median survival time; dose: 200.0 mg/kg/injection; schedule: Q01DX005 (ip); vehicle: saline; higher = longer survival
Toxic doses and inconclusive results are not listed.

// below: answered compounds
CC(C)[C@@]12O[C@@H]1CC13OC1[C@@H](O)CC[C@@]32O (stereo partly drawn)    103 % of control
c1ccc(CN2COC3CCCCCCC32)cc1 (stereo not drawn)    114 % of control
CN1OC(=O)OC2(CCCCC2)C1=O    96 % of control

Moving on to the next compound.
The compound "CN1CCC2(CC1)OCCCO2" showed T/C equal to 102 % of control

* * *

System: P388 leukemia ip, CD2F1 mice, survival T/C
Test Details: NCI In Vivo Anticancer Drug Screen. Data for tumor model P388 Leukemia (intraperitoneal) in CD2F1 (CDF1) mice
Condition Info: endpoint: median survival time; dose: 12.5 mg/kg/injection; schedule: Q01DX009 (ip); vehicle: saline with Tween-80; higher = longer survival
Toxic doses and inconclusive results are not listed.
Reported Endpoint: T/C

// below: answered compounds
CCC(C)c1cnc(CC(C)C)c(=O)n1O (stereo unspecified)    91 % of control
CCc1nc2ccccc2c(=O)n1C    100 % of control
C=CCNC(=S)Nc1ccc(OC(=O)Nc2ccc(Cl)c(Cl)c2)cc1    96 % of control
CC(=O)ON(C(C)=O)c1ccc(C(=O)OC2(C)CC(C)(C)N=N2)cc1 (stereo unspecified)    86 % of control

Known value: P388 leukemia ip, CD2F1 mice, survival T/C T/C of the compound "CN(C)C=Nc1cc(Cl)c(Cl)cc1Cl" equals 108 % of control

Known value: P388 leukemia ip, CD2F1 mice, survival T/C T/C of the compound "Cc1ccnc(N=C2N=C(Nc3cc(C)ccn3)c3ccccc32)c1" equals 88 % of control

Known value: P388 leukemia ip, CD2F1 mice, survival T/C T/C of the compound "COc1ccc(/C(C#N)=C2\OC(=O)c3ccccc32)cc1OC" equals 89 % of control

Known value: P388 leukemia ip, CD2F1 mice, survival T/C T/C of the compound O=c1n(CC2CC3(Cl)C(Cl)=C(Cl)C2(Cl)C3(Cl)Cl)c(=O)n(CC2CC3(Cl)C(Cl)=C(Cl)C2(Cl)C3(Cl)Cl)c(=O)n1CC1CC2(Cl)C(Cl)=C(Cl)C1(Cl)C2(Cl)Cl (stereo unspecified) equals 101 % of control

Known value: P388 leukemia ip, CD2F1 mice, survival T/C T/C of the compound "c1cc(Nc2ccc(Nc3ccc(CN4CCCCC4)cc3)cc2)ccc1CN1CCCCC1" equals 103 % of control

Known value: P388 leukemia ip, CD2F1 mice, survival T/C T/C of the compound CC(=O)NC(/C=C/c1ccc(Cl)c(Cl)c1)c1cccc(O)c(=O)c1 (stereo unspecified) equals 99 % of control

Known value: P388 leukemia ip, CD2F1 mice, survival T/C T/C of the compound "CCS(=O)(=O)Nc1cccc(Nc2c3cccc(C)c3nc3c(C)cccc23)c1OC" equals 177 % of control

* * *

Test system: P388 leukemia ip, CD2F1 mice, survival T/C
Test Details: NCI In Vivo Anticancer Drug Screen. Data for tumor model P388 Leukemia (intraperitoneal) in CD2F1 (CDF1) mice
Condition Info: endpoint: median survival time; dose: 100.0 mg/kg/injection; schedule: Q01DX005 (ip); vehicle: Klucel (hydroxypropylcellulose) (HPC); higher = longer survival
Toxic doses and inconclusive results are not listed.
Reported Endpoint: T/C

// below: answered compounds
N/C(=N\S(=O)(=O)c1ccccc1)[N+](=O)[O-]    102 % of control
COc1ccc2ncc(COC(C)=O)c(COC(C)=O)c2c1    98 % of control

Moving on to the next compound.
The compound "CN(CCC#N)c1ccc(/C=C(\C#N)c2cccc(C(F)(F)F)c2)cc1" showed T/C equal to 90 % of control

The origin of these recorded values is PubChem BioAssay AID330.
